Attribute: melting point

Before answering, review these 5 worked examples.
{"compound": "Cc1cc(Cn2cc(C(F)(F)C(F)(F)F)c(C(F)(F)C(F)(F)F)n2)ccc1NC(=O)c1cccc(Br)c1C(=O)N[C@@H](C)CS(C)=O (stereo partly specified)", "attribute.measured": "melting point", "value.reported": "127 to 129 °C"}
{"compound": "Cc1[nH]c(CN(C)C)c(C)c1-c1ccnc(Nc2ccc(F)cc2)n1", "attribute.measured": "melting point", "value.reported": "88.4 to 91.6 °C"}
{"compound": "O=C(O)c1ccc(C(F)F)s1", "attribute.measured": "melting point", "value.reported": "111 to 112 °C"}
{"compound": "FC(F)(F)/C(=C(\\c1ccccc1)c1ccc(OCc2ccccc2)cc1)c1ccccc1", "attribute.measured": "melting point", "value.reported": "128 to 129 °C"}
{"compound": "CC(CN(O)C(N)=O)OCc1ccco1 (stereo unspecified)", "attribute.measured": "melting point", "value.reported": "59 to 62 °C"}

Notebook: `CCCCCCC/C=C\CCCCCCCC(=O)CCCNC(C)=O` , melting point read as 51 to 52 °C

Notebook: `CCCSc1nsnc1O` , melting point read as 84 to 85 °C

Notebook: `COc1cc2c(cc1OC)CN(CN1CCc3cc(OC)c(OC)cc3C1)CC2` , melting point read as 126 °C

====

Attribute: melting point

Before answering, review these 4 worked examples.
{"molecule": "COc1ccc(CC(=O)Nc2c(C)c(C)c3c(c2C)C(c2ccc(C(C)C)cc2)C(C)(C)O3)cc1 (stereo not given)", "melting point": "171 to 173 °C"}
{"molecule": "COc1cc(C)ccc1Oc1ccc(Br)cc1O", "melting point": "75 to 76 °C"}
{"molecule": "CC(C#N)=C1CCN(c2ccc(N3C[C@H](CNC(=O)C(F)F)OC3=O)cc2F)CC1", "melting point": "172 to 174 °C"}
{"molecule": "N#Cc1nn(-c2c(Cl)cc(C(F)(F)F)cc2Cl)c(Cl)c1C1CC1(Br)Br (stereo not given)", "melting point": "104 °C"}

Notebook: `O[C@H](COc1cccc2[nH]ccc12)CN1CCC(c2c[nH]c3cc(C(F)(F)F)ccc23)CC1` , melting point read as 100 to 105 °C

====

Attribute: melting point

{"structure.smiles": "CC(=O)NC[C@H]1CN(c2ccc(N3CCS(=O)(=O)CC3)c(F)c2)C(=O)O1", "melting point": "202 to 203 °C"}

Notebook: `N=C(N)NOCc1ccccc1` , melting point read as 104 to 105 °C

Notebook: `Cc1ccc(C(=O)NNc2ccc(NC(=S)Nc3ccccc3)cc2)cc1` , melting point read as 186 to 187 °C

Notebook: `COc1ccccc1C=C1N=C(C)OC1=O` , melting point read as 151 to 153 °C

Notebook: `c1ccc(Cn2c3ccccc3c3ccccc32)cc1` , melting point read as 121 to 122 °C

Notebook: `COC(=O)c1ccc2c(c1)ncn2-c1ccc(OC)c(C2CCCC2)c1` , melting point read as 129 to 131 °C

Notebook: `CC1(C)CC(S(C)(=O)=O)=NO1` , melting point read as 82 to 84 °C

Notebook: `CC(C)C[C@H](NC(=O)OCc1ccccc1)C(=O)N[C@@H](Cc1ccccc1)C(=O)CSCc1ccco1` , melting point read as 77 to 78 °C

Notebook: `COC(=O)[C@H]1[C@@H]2CC[C@@H](C2)[C@@H]1C(=O)O` , melting point read as 59 to 60 °C

Notebook: `COc1ccc(Nc2ccc(OCc3ccccc3)cc2)c(C(C)=O)c1` , melting point read as 80 to 81.5 °C

Notebook: `O=C(O)c1ccc(OCCCOc2ccccc2)cc1C(=O)O` , melting point read as 155 to 159 °C
